# measuredOn: human SOS1 (loading of human K-Ras^G12C-GDP with fluorescent GTP-analog) (Homo sapiens)
# protocolSummary: Biochemical assay 3: K-Ras^G12C activation assay by hSOS1 (HTRF)
# conditionDetails: no GTP; read-out: Assay 3 (KRAS-Activation by SOS no GTP) activity expressed as IC50
Exercise: for every item that follows, state its recorded IC50.
Your answer should be a number followed by the unit of measure.

IC50 of COc1cc2nc(C)nc(N[C@H](C)c3cccc(-c4cn[nH]c4)c3)c2cc1OCCC(C)C [Example 351] on human SOS1 (loading of human K-Ras^G12C-GDP with fluorescent GTP-analog) (Homo sapiens)?
1310 nM

# query: IC50 | item COc1cc2nc(C)nc(N[C@@H](C)c3ccc(-c4ccncc4C)s3)c2cc1OC (racemic) [Example 53] | system: human SOS1 (loading of human K-Ras^G12C-GDP with fluorescent GTP-analog) (Homo sapiens)
1080 nM

For the record COc1cc2nc(C)nc(NC(C)c3ccc(-c4cccc(CN)c4)s3)c2cc1OC (stereo not drawn) [Example 265] , what value of IC50 is listed for human SOS1 (loading of human K-Ras^G12C-GDP with fluorescent GTP-analog) (Homo sapiens)?
1110 nM
